procedure.summary: 13-week IV toxicity study in rats with 4-week recovery (with plasma exposure)
test.parameters: rat, 30 mg/kg, Cmax, 30 mg/kg daily IV bolus, Week 13
measured.quantity: Cmax (ng/mL)

                      smiles_representation  quantity_unit  reported_measurement
0  CS(=O)(=O)c1cccc(C[C@H](NC(=O)c2c(Cl)cc3c(c2Cl)CCN(C(=O)c2ccc4ccoc4c2)C3)C(=O)O)c1          ng/mL                 16900

====

procedure.summary: 13-week IV toxicity study in rats with 4-week recovery (with plasma exposure)
test.parameters: rat, 3 mg/kg, AUC0-n, 3 mg/kg daily IV bolus, Day 1
measured.quantity: AUC (ng·h/mL)

                      smiles_representation  reported_measurement
0  CS(=O)(=O)c1cccc(C[C@H](NC(=O)c2c(Cl)cc3c(c2Cl)CCN(C(=O)c2ccc4ccoc4c2)C3)C(=O)O)c1                   148

====

Test system: human mononuclear cells (PBMC) stimulated with staphylococcal enterotoxin B (SEB)
procedure.summary: cells
Assay type: cell-based
test.parameters: read-out: EC50 Cytokine Release TNF-α
measured.quantity: EC50 (µM)

In [3]: df
Out[3]:
                                   compound  censoring_qualifier  reported_measurement
0  O=C(NC(Cc1cc(=O)[nH]c2ccccc12)C(=O)O)c1ccc(Cl)cc1 (centres unmarked) [Rebamipide, reference compound]                    >                  1000
1  CS(=O)(=O)c1cccc(C[C@H](NC(=O)c2c(Cl)cc3c(c2Cl)CCN(C(=O)c2ccc4ccoc4c2)C3)C(=O)O)c1                    =                 0.076

====

procedure.summary: 13-week IV toxicity study in rats with 4-week recovery (with plasma exposure)
test.parameters: rat, 30 mg/kg, Cmax, 30 mg/kg daily IV bolus, Day 1
measured.quantity: Cmax (ng/mL)

                      smiles_representation  measured_quantity  reported_measurement
0  CS(=O)(=O)c1cccc(C[C@H](NC(=O)c2c(Cl)cc3c(c2Cl)CCN(C(=O)c2ccc4ccoc4c2)C3)C(=O)O)c1               Cmax                  5120

====

procedure.summary: 13-week IV toxicity study in rats with 4-week recovery (with plasma exposure)
test.parameters: rat, 10 mg/kg, Cmax, 10 mg/kg daily IV bolus, Week 13
measured.quantity: Cmax (µg/mL)

>>> print(df.to_string())
                      smiles_representation  quantity_unit  reported_measurement
0  CS(=O)(=O)c1cccc(C[C@H](NC(=O)c2c(Cl)cc3c(c2Cl)CCN(C(=O)c2ccc4ccoc4c2)C3)C(=O)O)c1          µg/mL                  1.69

====

procedure.summary: Tear PK after a single topical ocular instillation in rabbits
test.parameters: rabbit, in vivo, topical or ocular, 1.05 mg
measured.quantity: Cmax (µg/mL)

In [3]: df
Out[3]:
                      smiles_representation  measured_quantity  reported_measurement
0  CS(=O)(=O)c1cccc(C[C@H](NC(=O)c2c(Cl)cc3c(c2Cl)CCN(C(=O)c2ccc4ccoc4c2)C3)C(=O)O)c1               Cmax                   314

====

procedure.summary: in vivo
test.parameters: topical or ocular, 0.105 mg
measured.quantity: Cmax (ng/mL)

>>> print(df.to_string())
                      smiles_representation  measured_quantity  reported_measurement
0  CS(=O)(=O)c1cccc(C[C@H](NC(=O)c2c(Cl)cc3c(c2Cl)CCN(C(=O)c2ccc4ccoc4c2)C3)C(=O)O)c1               Cmax                  11.7
